Readings of pIC50 for the listed compounds
assayedTarget: UniProt:P11511
Sequence (P11511 1-503): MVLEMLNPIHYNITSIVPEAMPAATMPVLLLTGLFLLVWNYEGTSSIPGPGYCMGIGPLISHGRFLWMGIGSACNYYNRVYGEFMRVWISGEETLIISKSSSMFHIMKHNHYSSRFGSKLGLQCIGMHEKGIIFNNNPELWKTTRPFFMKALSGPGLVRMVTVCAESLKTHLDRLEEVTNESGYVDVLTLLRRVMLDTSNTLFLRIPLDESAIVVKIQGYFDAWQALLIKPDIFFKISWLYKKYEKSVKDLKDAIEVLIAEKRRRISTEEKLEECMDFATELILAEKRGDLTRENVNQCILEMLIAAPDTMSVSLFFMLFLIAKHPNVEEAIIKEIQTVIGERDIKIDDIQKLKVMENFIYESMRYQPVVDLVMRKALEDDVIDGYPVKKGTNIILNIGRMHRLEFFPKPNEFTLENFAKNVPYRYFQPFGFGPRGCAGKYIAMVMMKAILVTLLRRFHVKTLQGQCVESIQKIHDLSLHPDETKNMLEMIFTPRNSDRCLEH
method: biochemical
Lab note: report pIC50 as minus log10 of the concentration in molar units, number only.

As a guide, the following entries are already answered.
Cc1ccc(S(=O)(=O)Nc2ccccn2)cc1 | 7.46
O=S(=O)(Cc1ccccc1)NCCN1CCOCC1 | 6.69
Cc1ccc(S(=O)(=O)NCCc2ccccn2)cc1 | 6.61

With those in mind, consider the next compound.
// assay UniProt:P11511, entry `O=S(=O)(Cc1ccccc1)NCCN1CCCCC1` , pIC50 value = 7.28

----------
assayedTarget: Aromatase (CYP19A) (Homo sapiens)
method: biochemical
quantityName: IC50

Answered cases to consult:
O=S(=O)(NC1CCN(Cc2ccccc2)CC1)c1ccccc1 | > 1000 µM
Cc1ccc(S(=O)(=O)Nc2ncc(Cl)cc2Cl)cc1 | > 100 µM
Cc1ccc(S(=O)(=O)Nc2ccc(Cl)cn2)cc1 | > 100 µM
Cc1ccc(S(=O)(=O)NCCC2CCCN2C)cc1 (centres unmarked) | 0.051 µM

Then this compound:
Record `Cc1ccc(S(=O)(=O)NC2CCN(Cc3ccccc3)CC2)cc1` . Reported IC50: > 1000 µM
